Entry source: the domain aggregation screens of Martell et al. (2025)

- assay.notes: soluble fraction after stress (log2 fold change); higher = more stays soluble; pooled small domains, quantitative proteomics
- details: stress: pH 4
readout.name: soluble fraction (log2)
Returns: the value as a bare number; no unit string appended.

Observe how each entry below is paired with its result.
**Q:** Indicate the recorded soluble fraction (log2) value for this sequence: `HMDAEEISILLEKAVLQLPEKQKMIFQLKYFEDLSYKDIQIITGGSIGGLKANYHHAVTKIEKLLS`
**A:** -0.892

**Q:** Indicate the recorded soluble fraction (log2) value for this sequence: `HMKPKDILLPNFTNLTLDEAKAKAEEVKLNLNVSEEKYDVQIEEGKIISQDPKYQPNYTVKEGSTVNVVVS`
**A:** 0.0508

**Q:** Indicate the recorded soluble fraction (log2) value for this sequence: `HMPGLDTTILSDILSLKKELPSRSAAKILIMLILAKRIEEGSLNLRTINRILNQYGYTRESLL`
**A:** 0.327

**Q:** Indicate the recorded soluble fraction (log2) value for this sequence: `HMDELPKDILRSFGLPDKPWAMELLRNLRRDGFALDGETARAYAEMAAMKPPRTDARQWMTAADVAYRRG`
**A:** 0.105

**Q:** Indicate the recorded soluble fraction (log2) value for this sequence: `HMVSPFQQQIADKVHNEIIAAKFNYDNATNENERLLAQLQAKKARELANQYGLDMSSYGADTTAERS`
**A:** 0.00762

Next:
**Q:** Indicate the recorded soluble fraction (log2) value for this sequence: `HMTTTPTSQMVTELRSRGWTLRALAQRLGVGHASINRWANGVTPDRDLVAALRALVASGEVP`
**A:** -0.00752

**Q:** Indicate the recorded soluble fraction (log2) value for this sequence: `HMQKPIKPVKMHTVGPKENLSSIGRMYEVNGRVLANYNNIDYDKGLTIGQVLKIPPKGTTLEQVT`
**A:** 0.0149

**Q:** Indicate the recorded soluble fraction (log2) value for this sequence: `HMTPELTAEEREVLSLLGDEPRTLAELIAASGRDYAALSVLLMGLELSQAVRQLPGNRYERF`
**A:** -1.36

**Q:** Indicate the recorded soluble fraction (log2) value for this sequence: `HMEQYFEDEELNDKFLEFLAMRKRVRKPVQTDRGMKMLLTSLHKLSGGDVGLMKQIIDQSLDNEWKKFVA`
**A:** -1.12

**Q:** Indicate the recorded soluble fraction (log2) value for this sequence: `HMAAGVESLTEKEFAVASLVGGGASNREIAERLAMSERTVKSHLSSIFRKMDVRDRVQLALAMND`
**A:** -0.0425

**Q:** Indicate the recorded soluble fraction (log2) value for this sequence: `HMPYHSEAWHKVMKSHWLTLSREEAYMHEGRTGASTINIVFQRELGREATQEEIESIYQEKSVLFNSYP`
**A:** -1.37

**Q:** Indicate the recorded soluble fraction (log2) value for this sequence: `HMEEFLSFIADILEVDKNTLTLETSQDDVETWDSLMQLRLLGEIEAKYGVMIPMERISTIKKLNDFYQYIK`
**A:** -1.76

**Q:** Indicate the recorded soluble fraction (log2) value for this sequence: `HMAPEPFILSVDADGKYYIDDLEKTKQEILIYATALYQEKPTTDFLVRGDKSAAYNDVLQAMVVLKE`
**A:** 0.171

**Q:** Indicate the recorded soluble fraction (log2) value for this sequence: `HMDKENVLQLQKDLLRLSVNALEKRYYQFSDILLLKYILPLVPKEISIDDQSRLRSLLSGIN`
**A:** -0.754

**Q:** Indicate the recorded soluble fraction (log2) value for this sequence: `HMHEIVDTVLQVKQSVEADPLIAPALKNKEIVFQLNAKGVFQFKNAVIQVASALGISKNTVYMHLRNNK`
**A:** -0.14

**Q:** Indicate the recorded soluble fraction (log2) value for this sequence: `HMKQVSDTGAIDAAIREVMDANPDKVAEYRSGKDKLFGFFVGQIMRAMAGKAAPVVVNDRLKALLD`
**A:** 0.32

**Q:** Indicate the recorded soluble fraction (log2) value for this sequence: `HMDIASNQIQGIKDSVGGDENYSKMVAWALESLPAEEVKAFNDLTETANAPAIKMAVQGLYSQYNNAM`
**A:** -0.9
